- ASSAYED TARGET: human wildtype MrgX2 (Homo sapiens, UniProt Q96LB1)
- Construct: expressed in transfected cells; host or cells: LN229 cells
- Sequence (Q96LB1 whole entry): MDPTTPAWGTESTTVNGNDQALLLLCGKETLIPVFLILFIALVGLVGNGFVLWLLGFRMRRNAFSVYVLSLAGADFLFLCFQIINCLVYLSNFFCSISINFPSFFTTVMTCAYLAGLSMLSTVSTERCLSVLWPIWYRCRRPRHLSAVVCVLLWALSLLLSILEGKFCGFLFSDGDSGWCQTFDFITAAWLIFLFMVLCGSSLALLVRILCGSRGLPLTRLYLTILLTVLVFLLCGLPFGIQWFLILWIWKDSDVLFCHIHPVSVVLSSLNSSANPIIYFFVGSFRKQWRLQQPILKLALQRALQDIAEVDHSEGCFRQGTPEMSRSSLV
- METHOD SUMMARY: calcium assay (LN229 cells recombinantly expressing human wildtype MrgX2)
- Assay type: cell-based
- RUN PARAMETERS: test concentration not given
PROPERTY: % inhibition ± SEM (%)
Numbers only, in %.

Below: 3 compounds and their reported % inhibition ± SEM.
CCCc1c(CC)c(=O)n2c([nH]c3ccccc32)c1C#N [C-88]	86
CCCc1[nH]c2nc3ccccc3n2c(=O)c1CCC [B-45]	89
CCCc1c(C(C)C)[nH]c2nc3ccccc3n2c1=O [B-42]	68

I have 3 compounds here; please give me % inhibition ± SEM for each one.
1. CCc1c(-c2ccccc2)[nH]c2nc3ccccc3n2c1=O [C-79]
2. O=c1c2c([nH]c3nc4ccccc4n13)CCCC2 [B-55]
3. CC(C)c1cc(=O)n2c(nc3ccccc32)[nH]1 [A-17]

## Output
1: 105; 2: 20; 3: 70

---

Please provide measured IC50 for the entries that follow.
- ASSAYED TARGET: human MrgX4 L83S (Homo sapiens, UniProt Q96LA9, L83S)
- Sequence (Q96LA9 whole entry L83S): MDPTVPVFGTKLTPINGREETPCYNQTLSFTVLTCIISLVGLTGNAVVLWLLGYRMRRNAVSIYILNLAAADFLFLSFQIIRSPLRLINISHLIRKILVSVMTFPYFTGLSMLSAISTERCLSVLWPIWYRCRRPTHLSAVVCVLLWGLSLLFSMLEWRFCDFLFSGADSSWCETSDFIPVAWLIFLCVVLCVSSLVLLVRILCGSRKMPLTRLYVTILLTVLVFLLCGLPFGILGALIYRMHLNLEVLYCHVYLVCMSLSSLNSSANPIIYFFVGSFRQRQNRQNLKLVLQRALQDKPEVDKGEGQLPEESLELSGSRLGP
- METHOD SUMMARY: β-arrestin assay (CHO β-arrestin human MrgX4 L83S)

CCc1c(-c2ccc(OC)cc2)[nH]c2nc3ccccc3n2c1=O [B-46]	0.25 µM
Cc1[nH]c2nc3ccccc3n2c(=O)c1CCc1ccccc1 [A-14]	> 10 µM
CCCc1cc(=O)n2c(nc3ccccc32)[nH]1 [A-19]	14.7 µM
CCc1c(C(C)C)[nH]c2nc3ccccc3n2c1=O [B-37]	0.29 µM
CCc1c(O)[nH]c2nc3ccccc3n2c1=O [A-24]	> 100 µM

I have 7 molecules here; please give me IC50 for each one.
1. COC(=O)c1cc(=O)[nH]c2nc3ccccc3n12 [B-65]
2. O=c1ccnc2[nH]c3ccccc3n12 [A-2]
3. CCc1c(C(C)C)nc2n(Cc3ccccc3)c3cc(C)ccc3n2c1=O [C-73]
4. Cc1[nH]c2nc3ccccc3n2c(=O)c1CCN=[N+]=[N-] [C-69]
5. CCCc1[nH]c2nc3ccccc3n2c(=O)c1CCC [B-45]
6. CCCc1c(-c2ccccc2)[nH]c2nc3ccccc3n2c1=O [A-21]
7. CCc1c(C(C)C)[nH]c2nc3c(C)cccc3n2c1=O [B-38]

## Output
1: > 100 µM; 2: > 100 µM; 3: > 10 µM; 4: > 100 µM; 5: 0.214 µM; 6: 0.583 µM; 7: > 100 µM

I have 3 molecules here; please give me IC50 for each one.
1. CCCc1c(C(C)C)[nH]c2nc3ccccc3n2c1=O [B-42]
2. COC(=O)Cc1cc(=O)n2c(nc3ccccc32)[nH]1 [A-28]
3. Cc1cc(=O)n2c3ccccc3nc2n1Cc1ccccc1 [A-5]

## Output
1. 0.512 µM
2. > 100 µM
3. > 10 µM

---

Please provide measured pIC50 for the entries that follow.
- ASSAYED TARGET: human wildtype MrgX2 (Homo sapiens, UniProt Q96LB1)
- METHOD SUMMARY: calcium assay (LN229 cells recombinantly expressing human wildtype MrgX2)
pIC50: −log10 of the molar value.

Below: 3 compounds and their reported pIC50.
CC(C)c1cc(=O)n2c3ccccc3n(C)c2n1	< 4.00
CCc1c(O)[nH]c2nc3ccccc3n2c1=O	< 4.00
CCCc1cc(=O)n2c(nc3ccccc32)[nH]1	< 4.00

## Input Param item = CCc1c(C(C)C)[nH]c2nc3cc(F)c(F)cc3n2c1=O ; retrieve measured pIC50.
## Output 9.38

---

Please provide measured pIC50 for the entries that follow.
- ASSAYED TARGET: human wildtype MrgX2 (Homo sapiens)
- METHOD SUMMARY: calcium assay (LN229 cells recombinantly expressing human wildtype MrgX2)
pIC50: −log10 of the molar value.

Below: 2 compounds and their reported pIC50.
CCCc1[nH]c2nc3ccccc3n2c(=O)c1CCC	< 4.00
CCCc1c(C(C)C)[nH]c2nc3ccccc3n2c1=O	< 4.00

Note: attention shifts to another entry.
## Input Param item = CC(C)c1cc(=O)n2c(nc3ccccc32)[nH]1 ; retrieve measured pIC50.
## Output < 4.00

---

- ASSAYED TARGET: human MrgX4 L83S (Homo sapiens, UniProt Q96LA9, L83S)
- METHOD SUMMARY: β-arrestin assay (CHO β-arrestin human MrgX4 L83S)
pIC50: −log10 of the molar value.
PROPERTY: pIC50

Below: 3 compounds and their reported pIC50.
O=c1ccsc2nc3ccccc3n12	< 4.00
CCc1c(C(C)C)[nH]c2nc3cc(Br)c(Br)cc3n2c1=O	6.05
CCc1c(C(C)C)[nH]c2nc3cc(F)ccc3n2c1=O	7.74

I have 3 compounds here; please give me pIC50 for each one.
1. CCc1c(C(C)C)[nH]c2nc3cc(C)ccc3n2c1=O
2. CCc1c(C)[nH]c2nc3ccccc3n2c1=O
3. O=C(O)Cc1cc(=O)n2c(nc3ccccc32)[nH]1

## Output
[7.04, 5.49, "< 4.00"]

I have 5 compounds here; please give me pIC50 for each one.
1. Cc1cc(=O)n2cc[nH]c2n1
2. Cc1[nH]c2nc3ccccc3n2c(=O)c1CCC(C)C
3. CNCCc1c(C)[nH]c2nc3ccccc3n2c1=O
4. CCCCc1c(O)[nH]c2nc3ccccc3n2c1=O
5. Cc1[nH]c2nc3ccccc3n2c(=O)c1CCO

## Output
< 4.00
< 5.00
< 4.00
< 4.00
< 4.00

Reference for the values: patent US20210128561A1
